Entry source: PubChem BioAssay AID2060502

The following molecules are listed with their measured viability, T/C values.
Test system: 885724-159-R-J1-PDC complex spheroid viability;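 note: spheroids exposed to agents for seven days before readout; percent of vehicle control viability where 100% = DMSO wells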
Assay: Anticancer human tumor 885724-159-R-J1-PDC patient-derived pancreatic adenocarcinoma cell line growth inhibition [GQUAD]
Conditions: second compound 0.0316 µM; first compound 0.0316 µM; active compounds read low

[
  {
    "molecule": "C=CC(=O)N1CCN(c2nc(=O)n(-c3c(C)ccnc3C(C)C)c3nc(-c4c(O)cccc4F)c(F)cc23)C(C)C1 (stereo unspecified) + Cc1cnc(CNC(=O)c2c(=O)c3ccc(N4CCCN(C)CC4)nc3n3c2sc2ccccc23)cn1",
    "tested system": "885724-159-R-J1-PDC complex spheroid viability",
    "viability, T/C / %": 107
  },
  {
    "molecule": "Nc1ccn(C2OC(CO)C(O)C2(F)F)c(=O)n1 (stereo unspecified) + CN(C)c1ccc(Nc2c3ccc(NC(=O)CCN4CCCC4)cc3nc3cc(NC(=O)CCN4CCCC4)ccc23)cc1",
    "tested system": "885724-159-R-J1-PDC complex spheroid viability",
    "viability, T/C / %": 79.8
  },
  {
    "molecule": "COc1ncnc(C2CC2)c1-c1ncc2cnn(Cc3ccc(-c4nc(C(F)(F)F)cn4C(C)C)cc3)c2n1 + Cc1[nH]c2ccc(F)cc2c1-c1nc2c3cccnc3c3ncccc3c2[nH]1",
    "tested system": "885724-159-R-J1-PDC complex spheroid viability",
    "viability, T/C / %": 85.5
  },
  {
    "molecule": "C=CCn1c(=O)c2cnc(Nc3ccc(N4CCN(C)CC4)cc3)nc2n1-c1cccc(C(C)(C)O)n1 + CN(C)c1ccc(Nc2c3ccc(NC(=O)CCN4CCCC4)cc3nc3cc(NC(=O)CCN4CCCC4)ccc23)cc1",
    "tested system": "885724-159-R-J1-PDC complex spheroid viability",
    "viability, T/C / %": 99
  },
  {
    "molecule": "Cn1ncnc1[C@H]1c2n[nH]c(=O)c3cc(F)cc(c23)N[C@@H]1c1ccc(F)cc1 + Cc1[nH]c2ccc(F)cc2c1-c1nc2c3cccnc3c3ncccc3c2[nH]1",
    "tested system": "885724-159-R-J1-PDC complex spheroid viability",
    "viability, T/C / %": 80.6
  },
  {
    "molecule": "CC1COCCN1c1cc(C2(S(C)(=N)=O)CC2)nc(-c2ccnc3[nH]ccc23)n1 (stereo unspecified) + Cc1[nH]c2ccc(F)cc2c1-c1nc2c3cccnc3c3ncccc3c2[nH]1",
    "tested system": "885724-159-R-J1-PDC complex spheroid viability",
    "viability, T/C / %": 105
  },
  {
    "molecule": "Cc1[nH]c2ccccc2c1CCNCc1ccc(/C=C/C(=O)NO)cc1 + Cc1[nH]c2ccc(F)cc2c1-c1nc2c3cccnc3c3ncccc3c2[nH]1",
    "tested system": "885724-159-R-J1-PDC complex spheroid viability",
    "viability, T/C / %": 98.2
  },
  {
    "molecule": "Cc1cccc(N(C)C(=O)C2C(O)CCN2c2nc(C)cc(C(F)(F)F)c2C#N)c1 (stereo unspecified) + CN(C)c1ccc(Nc2c3ccc(NC(=O)CCN4CCCC4)cc3nc3cc(NC(=O)CCN4CCCC4)ccc23)cc1",
    "tested system": "885724-159-R-J1-PDC complex spheroid viability",
    "viability, T/C / %": 95.6
  },
  {
    "molecule": "CC(C)n1c(=O)n(C)c2cnc3cc(F)c(-c4ccc(OCCCN5CCCCC5)nc4)cc3c21 + Cc1cnc(CNC(=O)c2c(=O)c3ccc(N4CCCN(C)CC4)nc3n3c2sc2ccccc23)cn1",
    "tested system": "885724-159-R-J1-PDC complex spheroid viability",
    "viability, T/C / %": 91.3
  },
  {
    "molecule": "COc1cccc2c1C(=O)c1c(O)c3c(c(O)c1C2=O)CC(O)(C(=O)CO)CC3OC1CC(N)C(O)C(C)O1 (stereo unspecified) + CN(C)c1ccc(Nc2c3ccc(NC(=O)CCN4CCCC4)cc3nc3cc(NC(=O)CCN4CCCC4)ccc23)cc1",
    "tested system": "885724-159-R-J1-PDC complex spheroid viability",
    "viability, T/C / %": 101
  },
  {
    "molecule": "CC1COCCN1c1cc(-c2ccnn2C)c2ccnc(-c3ccn[nH]3)c2n1 (stereo unspecified) + CN(C)c1ccc(Nc2c3ccc(NC(=O)CCN4CCCC4)cc3nc3cc(NC(=O)CCN4CCCC4)ccc23)cc1",
    "tested system": "885724-159-R-J1-PDC complex spheroid viability",
    "viability, T/C / %": 91.5
  },
  {
    "molecule": "O=C(c1cc(Cc2n[nH]c(=O)c3ccccc23)ccc1F)N1CCN(C(=O)C2CC2)CC1 + Cc1[nH]c2ccc(F)cc2c1-c1nc2c3cccnc3c3ncccc3c2[nH]1",
    "tested system": "885724-159-R-J1-PDC complex spheroid viability",
    "viability, T/C / %": 99.1
  },
  {
    "molecule": "COc1ccc([C@@H](O)c2cc(-c3ncnc4cc(N5CCOCC5)ccc34)c(F)cc2Cl)nn1 + CN(C)c1ccc(Nc2c3ccc(NC(=O)CCN4CCCC4)cc3nc3cc(NC(=O)CCN4CCCC4)ccc23)cc1",
    "tested system": "885724-159-R-J1-PDC complex spheroid viability",
    "viability, T/C / %": 88.5
  },
  {
    "molecule": "O=c1[nH]cc(F)c(=O)[nH]1 + CN(C)c1ccc(Nc2c3ccc(NC(=O)CCN4CCCC4)cc3nc3cc(NC(=O)CCN4CCCC4)ccc23)cc1",
    "tested system": "885724-159-R-J1-PDC complex spheroid viability",
    "viability, T/C / %": 105
  },
  {
    "molecule": "CCCS(=O)(=O)Nc1ccc(F)c(C(=O)c2c[nH]c3ncc(-c4ccc(Cl)cc4)cc23)c1F + Cc1cnc(CNC(=O)c2c(=O)c3ccc(N4CCCN(C)CC4)nc3n3c2sc2ccccc23)cn1",
    "tested system": "885724-159-R-J1-PDC complex spheroid viability",
    "viability, T/C / %": 95
  },
  {
    "molecule": "CC(C)n1c(=O)n(C)c2cnc3cc(F)c(-c4ccc(OCCCN5CCCCC5)nc4)cc3c21 + Cc1[nH]c2ccc(F)cc2c1-c1nc2c3cccnc3c3ncccc3c2[nH]1",
    "tested system": "885724-159-R-J1-PDC complex spheroid viability",
    "viability, T/C / %": 107
  },
  {
    "molecule": "CC(C)n1c(=O)n(C)c2cnc3cc(F)c(-c4ccc(OCCCN5CCCCC5)nc4)cc3c21 + CN(C)c1ccc(Nc2c3ccc(NC(=O)CCN4CCCC4)cc3nc3cc(NC(=O)CCN4CCCC4)ccc23)cc1",
    "tested system": "885724-159-R-J1-PDC complex spheroid viability",
    "viability, T/C / %": 105
  },
  {
    "molecule": "CC1COCCN1c1cc(C2(O)CC3CCC(C2)O3)c2cnn(-c3ccn[nH]3)c2n1 (stereo unspecified) + Cc1[nH]c2ccc(F)cc2c1-c1nc2c3cccnc3c3ncccc3c2[nH]1",
    "tested system": "885724-159-R-J1-PDC complex spheroid viability",
    "viability, T/C / %": 97.7
  },
  {
    "molecule": "Nc1ccn(C2OC(CO)C(O)C2(F)F)c(=O)n1 (stereo unspecified) + Cc1cnc(CNC(=O)c2c(=O)c3ccc(N4CCCN(C)CC4)nc3n3c2sc2ccccc23)cn1",
    "tested system": "885724-159-R-J1-PDC complex spheroid viability",
    "viability, T/C / %": 105
  },
  {
    "molecule": "O=C(NO)c1cnc(N2CCN(S(=O)(=O)c3ccc4ccccc4c3)CC2)nc1 + CN(C)c1ccc(Nc2c3ccc(NC(=O)CCN4CCCC4)cc3nc3cc(NC(=O)CCN4CCCC4)ccc23)cc1",
    "tested system": "885724-159-R-J1-PDC complex spheroid viability",
    "viability, T/C / %": 91.8
  },
  {
    "molecule": "COc1cc(C2c3cc4c(cc3C(OC3OC5COC(C)OC5C(O)C3O)C3COC(=O)C23)OCO4)cc(OC)c1O (stereo unspecified) + Cc1[nH]c2ccc(F)cc2c1-c1nc2c3cccnc3c3ncccc3c2[nH]1",
    "tested system": "885724-159-R-J1-PDC complex spheroid viability",
    "viability, T/C / %": 92.8
  }
]
